The measurements presented in this section are drawn from BindingDB's records for patent US20250019357.

measured-target: UniProt:P28222
Sequence (P28222 whole entry): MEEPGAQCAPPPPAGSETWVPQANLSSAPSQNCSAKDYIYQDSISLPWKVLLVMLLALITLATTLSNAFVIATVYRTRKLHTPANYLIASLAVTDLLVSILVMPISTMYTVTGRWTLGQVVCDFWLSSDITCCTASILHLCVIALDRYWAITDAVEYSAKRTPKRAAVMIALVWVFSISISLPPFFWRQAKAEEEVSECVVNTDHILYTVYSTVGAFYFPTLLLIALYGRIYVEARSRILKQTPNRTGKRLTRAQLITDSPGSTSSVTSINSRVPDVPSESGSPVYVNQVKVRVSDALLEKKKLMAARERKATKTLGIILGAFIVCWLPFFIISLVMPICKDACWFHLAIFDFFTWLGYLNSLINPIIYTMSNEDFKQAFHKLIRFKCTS
protocol-notes: 5-HT1BR cAMP Secondary Messenger Agonist Assay
I'd be grateful if you could share measured EC50 for these entries.

>  <compound>
CNC(C)C(=O)c1ccc2occc2c1 (single isomer, unassigned; form 2) [US20250019357, Compound (+)-BK-5MAPB]

>  <readout-name>
EC50

>  <result>
3.07 µM

$$$$

Hi! Can you tell me EC50 for each of these compounds?
1. CNC(C)C(=O)c1ccc2ccoc2c1 (single isomer, unassigned; form 2) [US20250019357, Compound (+)-BK-6MAPB]
2. CNC(C)C(=O)c1ccc2occc2c1 (single isomer, unassigned; form 1) [US20250019357, Compound (-)-BK-5MAPB]
3. CCC(NC)C(=O)c1ccc2occc2c1 (single isomer, unassigned; form 2) [US20250019357, Compound (-)-BK-5MBPB]
4. CCC(NC)C(=O)c1ccc2occc2c1 (single isomer, unassigned; form 1) [US20250019357, Compound (+)-BK-5MBPB]

1. > 10 µM
2. 0.0777 µM
3. 6.61 µM
4. > 30 µM

* * *

I'd be grateful if you could share measured pEC50 for these entries.
protocol-notes: Human Serotonin Transporter (SERT, SLC6A4) Functional Antagonist Uptake Assay
Give bare numbers, as −log10 of the molar value.

>  <chemical-structure>
CC[C@@H](Cc1ccc2ccoc2c1)NC

>  <numeric-readout>
7.27

$$$$

I have this compound here, CC[C@H](Cc1ccc2ccoc2c1)NC , and I need its recorded pEC50.
6.76

* * *

measured-target: Sodium-dependent serotonin transporter (Homo sapiens)
protocol-notes: Human Serotonin Transporter (SERT, SLC6A4) Functional Antagonist Uptake Assay
I'd be grateful if you could share measured pKi for these entries.
Answers are plain numbers, as −log10 of the molar value.

>  <molecule>
CC[C@H](Cc1ccc2ccoc2c1)NC [US20250019357, Compound R-(-)-6-MBPB]

>  <measured-target>
Sodium-dependent serotonin transporter (Homo sapiens)

>  <numeric-readout>
5.59

$$$$

Here's the next entry for you.
I have this molecule here, CC[C@@H](Cc1ccc2ccoc2c1)NC [US20250019357, Compound S-(+)-6-MBPB] , and I need its recorded pKi.
5.92

* * *

measured-target: Sodium-dependent serotonin transporter (Homo sapiens, UniProt P31645)
Sequence (P31645 whole entry): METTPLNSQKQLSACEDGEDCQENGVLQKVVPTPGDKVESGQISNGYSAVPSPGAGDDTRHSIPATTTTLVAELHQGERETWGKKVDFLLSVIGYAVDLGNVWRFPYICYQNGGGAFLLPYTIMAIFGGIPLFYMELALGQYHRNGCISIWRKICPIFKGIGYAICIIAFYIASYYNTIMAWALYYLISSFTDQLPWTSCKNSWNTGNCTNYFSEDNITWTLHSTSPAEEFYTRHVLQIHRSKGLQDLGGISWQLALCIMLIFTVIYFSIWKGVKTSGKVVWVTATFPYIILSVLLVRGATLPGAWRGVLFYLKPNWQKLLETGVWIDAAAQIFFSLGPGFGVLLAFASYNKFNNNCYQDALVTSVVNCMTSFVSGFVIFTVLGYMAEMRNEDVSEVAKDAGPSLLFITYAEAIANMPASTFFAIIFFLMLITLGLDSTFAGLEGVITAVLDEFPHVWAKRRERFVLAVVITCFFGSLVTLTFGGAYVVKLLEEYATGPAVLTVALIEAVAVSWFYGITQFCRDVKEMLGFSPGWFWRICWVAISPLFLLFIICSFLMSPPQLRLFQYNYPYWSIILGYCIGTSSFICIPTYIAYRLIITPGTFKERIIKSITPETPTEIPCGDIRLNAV
protocol-notes: Human Serotonin Transporter (SERT, SLC6A4) Functional Antagonist Uptake Assay
readout-name: IC50 (µM)
Give bare numbers, in µM.

>  <molecule>
CC[C@@H](Cc1ccc2ccoc2c1)NC [US20250019357, Compound S-(+)-6-MBPB]

>  <measured-target>
Sodium-dependent serotonin transporter (Homo sapiens, UniProt P31645)

>  <units-of-measure>
µM

>  <IC50>
2.7

$$$$

I have this molecule here, CC[C@H](Cc1ccc2ccoc2c1)NC [US20250019357, Compound R-(-)-6-MBPB] , and I need its recorded IC50.
5.7
